# key: entry, value: solubility
# assay: physchem
# experimental-parameters: water
reported-metric: solubility

molecule | meas-value
COc1ccc(C2(O)OC(=O)C(c3ccc4c(c3)OCO4)=C2Cc2cc(OC)c(OC)c(OCCCS(=O)(=O)O)c2)cc1 (stereo not drawn) | > 80 mg/mL
COc1ccc(C2(O)OC(=O)C(c3ccc4c(c3)OCO4)=C2Cc2cc(OC)c(OC)c(OCCN(C)C)c2)cc1 (stereo not drawn) | > 25 mg/mL
COc1ccc(C2(O)OC(=O)C(c3ccc4c(c3)OCO4)=C2Cc2cc(OC)c(OC)c(OCCN3CCOCC3)c2)cc1 (stereo not drawn) | > 25 mg/mL

* * *

# key: entry, value: pIC50
# measured-on: UniProt:P25101
# assay: biochemical
# Type: binding
# experimental-parameters: human cloned receptor ETA; [125I]-ET-1 (40 pM), 2 hours, 37 °C; read-out: HERBA-A IC50
pIC50: −log10 of the molar value.
reported-metric: pIC50

compound | meas-value
COc1ccc(C2(O)OC(=O)C(c3cc(OC)c4c(c3)OCO4)=C2Cc2cccc(CN(C)C)c2)cc1 (stereo not shown) [Example 34] | 9.22
COc1ccc(C2(O)OC(=O)C(c3cc(OC)cc(OC)c3)=C2Cc2cc(OC)c(OC)c(OCCN(C)C)c2)cc1 (stereo not shown) | 8.70
COc1ccc(C2(O)OC(=O)C(c3ccc4c(c3)OCO4)=C2Cc2cccc(CN(C)C)c2)cc1 (stereo not shown) [Example 33] | 8.92
COc1cc(CC2=C(c3ccc4c(c3)OCO4)C(=O)OC2(O)c2ccc(OCCN3CCOCC3)cc2)cc(OC)c1OC (stereo not shown) | 7.85

* * *

# measured-on: human ETA R (Homo sapiens)
# assay: biochemical
# Type: binding
# experimental-parameters: human cloned receptor ETA; [125I]-ET-1 (40 pM), 2 hours, 37 °C; read-out: HERBA-A IC50
pIC50: −log10 of the molar value.
# key: entry, value: pIC50

compound | pIC50
COc1ccc(C2(O)OC(=O)C(c3cc(OC)c4c(c3)OCO4)=C2Cc2cccc(CN(C)C)c2)cc1 (stereo not drawn) [Example 35] | 9.00
COc1ccc(C2(O)OC(=O)C(c3ccc4c(c3)OCO4)=C2Cc2cc(OC)c(OC)c(OCC(=O)NCCN3CCOCC3)c2)cc1 (stereo not drawn) [Example 3] | 8.70
CNc1cccc(CC2=C(c3ccc4c(c3)OCO4)C(=O)OC2(O)c2ccc(OC)cc2)c1 (stereo not drawn) | 8.70

* * *

# key: entry, value: IC50
# measured-on: recombinant human ETB R (Homo sapiens, UniProt P24530)
# Sequence (P24530 27-442): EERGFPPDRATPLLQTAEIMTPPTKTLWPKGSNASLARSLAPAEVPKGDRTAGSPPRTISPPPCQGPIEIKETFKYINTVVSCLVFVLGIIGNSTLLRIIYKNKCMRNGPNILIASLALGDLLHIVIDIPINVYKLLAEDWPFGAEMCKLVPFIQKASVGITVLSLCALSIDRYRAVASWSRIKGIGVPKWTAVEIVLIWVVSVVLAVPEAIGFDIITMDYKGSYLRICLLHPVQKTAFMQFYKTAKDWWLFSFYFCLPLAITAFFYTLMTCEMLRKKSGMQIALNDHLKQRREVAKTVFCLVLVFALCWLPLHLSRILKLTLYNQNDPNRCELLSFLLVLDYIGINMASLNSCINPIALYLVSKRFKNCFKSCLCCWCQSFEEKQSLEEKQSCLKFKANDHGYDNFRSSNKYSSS
# assay: biochemical
# Assay type: binding
# experimental-parameters: human cloned receptor ETB; [125I]-ET-1 (40 pM), 2 hours, 37 °C; read-out: HERBA-B IC50
# Method: The following cultured cells were used in binding experiments: CHO-K1 cells expressing recombinant human ETB R (HERBA B), or Ltk-cells expressing human ETA R (HERBA A). […] Membranes were prepared from cultured cells by lysing cells in cold lysis buffer (5 mM HEPES, 2 mM EDTA, pH 7.4) and homogenizing with a Dounce "A" homogenizer. […] Radioligand and competing ligands were prepared in binding buffer containing 20 mM Tris, 2 mM EDTA, and 0.1% BSA. […]
reported-metric: IC50 (nM)

compound | op | meas-value
COc1ccc(C2(O)OC(=O)C(c3ccc4c(c3)OCO4)=C2Cc2cc(OC)c(OCCN3CCOCC3)c(OCCN3CCOCC3)c2)cc1 (centres unmarked) | > | 25000
COc1cc(CC2=C(c3ccc4c(c3)OCO4)C(=O)OC2(O)c2ccc(OCCCN(C)C)cc2)cc(OC)c1OC (centres unmarked) [Example 30] | > | 2500
COc1ccc(C2(O)OC(=O)C(c3ccc4c(c3)OCO4)=C2Cc2cccc(CN(C)C)c2)cc1 (centres unmarked) [Example 33] | = | 470
COc1ccc(C2(O)OC(=O)C(c3cc(OC)c4c(c3)OCO4)=C2Cc2cccc(CN(C)C)c2)cc1 (centres unmarked) [Example 35] | = | 210
COc1ccc(C2(O)OC(=O)C(c3ccc4c(c3)OCO4)=C2Cc2cc(OC)c(OC)c(OC)c2)c(OCCCN(C)C)c1 (centres unmarked) | = | 800
COc1ccc(C2(O)OC(=O)C(c3cc(OC)cc(OC)c3)=C2Cc2cc(OC)c(OC)c(OCCN(C)C)c2)cc1 (centres unmarked) | > | 2500
COc1cc(CC2=C(c3ccc4c(c3)OCO4)C(=O)OC2(O)c2ccc(OCCN3CCOCC3)cc2)cc(OC)c1OC (centres unmarked) [Example 27] | = | 3350
COc1cc(CC2=C(c3ccc4c(c3)OCO4)C(=O)OC2(O)c2ccc(OCCCN(C)C)cc2)cc(OC)c1OC (centres unmarked) [Example 29] | = | 17000
COc1ccc(C2(O)OC(=O)C(c3cc(OC)c4c(c3)OCO4)=C2Cc2cccc(CN(C)C)c2)cc1 (centres unmarked) [Example 34] | = | 110
COc1ccc(C2(O)OC(=O)C(c3ccc4c(c3)OCO4)=C2Cc2cc(OC)c(OC)c(OCC(=O)NCCN3CCOCC3)c2)cc1 (centres unmarked) | > | 2500
COc1cc(CC2=C(c3ccc4c(c3)OCO4)C(=O)OC2(O)c2ccc(OCCN3CCOCC3)cc2)cc(OC)c1OC (centres unmarked) [Example 28] | = | 4100
COc1ccc(C2(O)OC(=O)C(c3cc(OC)cc(OC)c3)=C2Cc2cc(OC)c(OC)c(OCCCN3CCN(C)CC3)c2)cc1 (centres unmarked) | > | 2500
CNc1cccc(CC2=C(c3ccc4c(c3)OCO4)C(=O)OC2(O)c2ccc(OC)cc2)c1 (centres unmarked) | = | 2700
COc1ccc(C2(O)OC(=O)C(c3ccc4c(c3)OCO4)=C2Cc2cccc(CN(C)C)c2)cc1 (centres unmarked) [Example 32] | = | 900

* * *

# measured-on: human ETA R (Homo sapiens)
# assay: biochemical
# Assay type: binding
# experimental-parameters: human cloned receptor ETA; [125I]-ET-1 (40 pM), 2 hours, 37 °C; read-out: HERBA-A IC50

molecule | IC50 (nM)
COc1ccc(C2(O)OC(=O)C(c3ccc4c(c3)OCO4)=C2Cc2cc(OC)c(OC)c(OC)c2)c(OCCCN(C)C)c1 (stereo not shown) [Example 38] | 1
COc1cc(CC2=C(c3ccc4c(c3)OCO4)C(=O)OC2(O)c2ccc(OCCCN(C)C)cc2)cc(OC)c1OC (stereo not shown) [Example 29] | 40
COc1ccc(C2(O)OC(=O)C(c3cc(OC)cc(OC)c3)=C2Cc2cc(OC)c(OC)c(OCCCN3CCN(C)CC3)c2)cc1 (stereo not shown) [Example 17] | 12.5
COc1ccc(C2(O)OC(=O)C(c3ccc4c(c3)OCO4)=C2Cc2cc(OC)c(OC)c(OCC(=O)NCCN3CCOCC3)c2)cc1 (stereo not shown) [Example 4] | 1
COc1ccc(C2(O)OC(=O)C(c3ccc4c(c3)OCO4)=C2Cc2cc(OC)c(OCCN3CCOCC3)c(OCCN3CCOCC3)c2)cc1 (stereo not shown) [Example 9] | 180
COc1cc(CC2=C(c3ccc4c(c3)OCO4)C(=O)OC2(O)c2ccc(OCCCN(C)C)cc2)cc(OC)c1OC (stereo not shown) [Example 30] | 180
COc1ccc(C2(O)OC(=O)C(c3ccc4c(c3)OCO4)=C2Cc2cccc(CN(C)C)c2)cc1 (stereo not shown) [Example 32] | 4

* * *

# key: entry, value: pIC50
# measured-on: human ETA R (Homo sapiens, UniProt P25101)
# Sequence (P25101 21-427): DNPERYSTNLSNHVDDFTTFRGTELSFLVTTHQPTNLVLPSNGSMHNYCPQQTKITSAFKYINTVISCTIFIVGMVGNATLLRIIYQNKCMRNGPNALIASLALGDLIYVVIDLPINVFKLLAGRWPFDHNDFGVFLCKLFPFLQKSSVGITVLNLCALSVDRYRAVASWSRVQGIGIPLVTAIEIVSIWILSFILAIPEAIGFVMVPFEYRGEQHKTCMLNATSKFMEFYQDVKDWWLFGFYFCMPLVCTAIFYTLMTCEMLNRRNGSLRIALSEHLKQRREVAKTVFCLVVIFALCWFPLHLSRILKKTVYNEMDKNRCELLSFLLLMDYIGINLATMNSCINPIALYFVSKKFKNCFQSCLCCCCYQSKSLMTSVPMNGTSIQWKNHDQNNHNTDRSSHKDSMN
# assay: biochemical
# Format: binding
# experimental-parameters: read-out: HERBA-A IC50
pIC50: −log10 of the molar value. Counter-ions that a name gives are not always drawn.
reported-metric: pIC50

compound | reported-metric | meas-value
COc1cc(CC2=C(c3ccc4c(c3)OCO4)C(=O)OC2(O)c2ccc(OCCN3CCOCC3)cc2)cc(OC)c1OC (centres unmarked) | pIC50 | 7.92
COc1ccc(C(=O)C(Cc2cccc(CN(C)C)c2)=C(C(=O)O)c2cc(OC)c3c(c2)OCO3)cc1 [sodium salt] | pIC50 | 8.70
